Hello, the source for this data is patent US12662489B2, in case you need it.

Each item that follows carries a reported IC50.
- STUDY_TARGET: MTHFD1 recombinant human enzyme (Homo sapiens)
- Sequence (P11586 2-291 limits assumed): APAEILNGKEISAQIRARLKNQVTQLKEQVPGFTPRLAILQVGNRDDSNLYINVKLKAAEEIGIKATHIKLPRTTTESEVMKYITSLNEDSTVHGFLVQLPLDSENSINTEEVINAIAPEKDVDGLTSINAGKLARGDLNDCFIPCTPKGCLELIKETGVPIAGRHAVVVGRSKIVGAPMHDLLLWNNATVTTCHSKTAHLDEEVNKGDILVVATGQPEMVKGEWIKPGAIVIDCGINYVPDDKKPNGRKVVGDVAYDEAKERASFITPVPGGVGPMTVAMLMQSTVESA
- TEST_DETAILS: MTHFD1 inhibition assay (NAD(P)H-Glo luminescence)
- STATED_CONDITIONS: MTHFD1 IC50, recombinant human enzyme 200 nM, NADP, band
READOUT_NAME: IC50

compound=COC[C@H]1CN(c2cc(C)c3c4c(c(=O)oc3c2C)CN(C(=O)c2ccc(C(=O)NS(=O)(=O)N3CCCC3)c(O[C@H]3C[C@@H]5C[C@@H]5C3)c2F)CC4)CCN1C readout_name=IC50 measured_result="1 to 10 nM"
compound=COC[C@H]1CN(c2cc(Cl)c3c4c(c(=O)oc3c2C)CN(C(=O)c2cc(N(C)C)c(C(=O)NS(=O)(=O)N3CC[C@@H](OC)C3)cc2F)CC4)CCN1C readout_name=IC50 measured_result="100 to 1000 nM"
compound=COC[C@H]1CN(c2cc(C)c3c4c(c(=O)oc3c2C)CN(C(=O)c2ccc(C(=O)NS(=O)(=O)C3(C)CC3)c(OC3CCC3)c2)CC4)CCN1C readout_name=IC50 measured_result="100 to 1000 nM"
compound=COC[C@@H]1CN(c2cc(C)c3c4c(c(=O)oc3c2C)CN(C(=O)c2ccc(C(=O)NS(=O)(=O)N3CCCC3)c(OC3CCC3)c2F)CC4)CCN1C readout_name=IC50 measured_result="100 to 1000 nM"
compound=COC[C@H]1CN(c2ccc3c4c(c(=O)oc3c2C)CN(C(=O)c2cc(N(C)C)c(C(=O)NS(=O)(=O)N3C5CCC3CC5)cc2F)CC4)CCN1C readout_name=IC50 measured_result="1000 to 5000 nM"
compound="CCOc1c(C(=O)NS(=O)(=O)N2CC3CC3C2)ccc(C(=O)N2CCc3c(c(=O)oc4c(CC)c(N5CCN(C)[C@@H](COC)C5)ccc34)C2)c1F (stereo partly drawn)" readout_name=IC50 measured_result="10 to 100 nM"
compound=CCCOc1c(C(=O)NS(=O)(=O)N2CCCC2)ccc(C(=O)N2CCc3c(c(=O)oc4c(C)c(N5CCN(C)[C@@H](COC)C5)cc(C)c34)C2)c1F readout_name=IC50 measured_result="10 to 100 nM"
compound=CCOc1cc(C(=O)N2CCc3c(c(=O)oc4c(C)c(N5CCN(C)[C@@H](COC)C5)cc(Cl)c34)C2)c(F)cc1C(=O)NS(=O)(=O)N1CCCC1 readout_name=IC50 measured_result="100 to 1000 nM"
compound=COC[C@H]1CN(c2cc(Cl)c3c4c(c(=O)oc3c2C)CN(C(=O)c2cc(N(C)C)c(C(=O)NS(=O)(=O)N(C)C3CC3)cc2F)CC4)CCN1C readout_name=IC50 measured_result="100 to 1000 nM"
compound=COC[C@H]1CN(c2cc(C)c3c4c(c(=O)oc3c2C)CN(C(=O)c2ccc(C(=O)NS(=O)(=O)N(C)C)c(N(C)C3CCC3)c2F)CC4)CCN1C readout_name=IC50 measured_result="10 to 100 nM"
compound=CCOc1cc(C(=O)N2CCc3c(c(=O)oc4c(C)c(N5CCN(C)[C@@H](COC)C5)cc(C)c34)C2)c(F)cc1C(=O)NS(=O)(=O)N1C2CCC1COC2 readout_name=IC50 measured_result="100 to 1000 nM"
compound=COC[C@H]1CN(c2cc(C)c3c4c(c(=O)oc3c2C)CN(C(=O)c2cc(N(C)C)c(C(=O)NS(=O)(=O)N3C5CCC3CC5)cc2Cl)CC4)CCN1C readout_name=IC50 measured_result="1000 to 5000 nM"

###

- STUDY_TARGET: MTHFD2 recombinant human enzyme (Homo sapiens, UniProt P13995)
- Sequence (P13995 36-350): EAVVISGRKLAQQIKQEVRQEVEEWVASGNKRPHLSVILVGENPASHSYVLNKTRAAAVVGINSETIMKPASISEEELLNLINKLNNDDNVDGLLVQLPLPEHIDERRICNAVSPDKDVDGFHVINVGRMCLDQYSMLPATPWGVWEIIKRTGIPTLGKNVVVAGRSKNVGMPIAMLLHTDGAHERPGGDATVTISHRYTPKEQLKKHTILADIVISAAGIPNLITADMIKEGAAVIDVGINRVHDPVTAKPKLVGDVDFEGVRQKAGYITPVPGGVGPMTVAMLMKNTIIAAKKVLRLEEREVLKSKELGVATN
- TEST_DETAILS: MTHFD2 inhibition assay (NAD(P)H-Glo luminescence)
Each item that follows carries a reported IC50.
READOUT_NAME: IC50

molecule=COC[C@H]1CN(c2ccc3c4c(c(=O)oc3c2C)CN(C(=O)c2ccc(C(=O)NS(=O)(=O)N(C)C)c(N3CCCC3)c2)CC4)CCN1C readout_name=IC50 measured_result="1 to 10 nM"
molecule=COC[C@H]1CN(c2ccc3c4c(c(=O)oc3c2Cl)CN(C(=O)c2ccc(C(=O)NS(=O)(=O)N(C)C)c(O[C@@H]3C[C@@H]5C[C@@H]5C3)c2F)CC4)CCN1C readout_name=IC50 measured_result="1 to 10 nM"
molecule=COC[C@H]1CN(c2cc(C)c3c4c(c(=O)oc3c2C)CN(C(=O)c2ccc(C(=O)NS(=O)(=O)N3CCCC3)c(OCCC(F)(F)F)c2F)CC4)CCN1C readout_name=IC50 measured_result="1 to 10 nM"
molecule=COC[C@H]1CN(c2cc(C)c3c4c(c(=O)oc3c2C)CN(C(=O)c2ccc(C(=O)NS(=O)(=O)C3(C)CC3)c(N3CCCC3)c2)CC4)CCN1C readout_name=IC50 measured_result="1 to 10 nM"
molecule=COC[C@H]1CN(c2cc(C)c3c4c(c(=O)oc3c2C)CN(C(=O)c2cc(N(C)C)c(C(=O)NS(=O)(=O)C3(C)CC3)cc2Cl)CC4)CCN1C readout_name=IC50 measured_result="10 to 100 nM"
molecule="COC[C@H]1CN(c2ccc3c4c(c(=O)oc3c2C)CN(C(=O)c2cc(N3CC5CC5C3)c(C(=O)NS(=O)(=O)C3(C)CC3)c(C(F)(F)F)c2)CC4)CCN1C (stereo partly shown)" readout_name=IC50 measured_result="100 to 1000 nM"
molecule=COC[C@H]1CN(c2cc(C)c3c4c(c(=O)oc3c2C)CN(C(=O)c2cc(N(C)C)c(C(=O)NS(=O)(=O)N3C5CCC3CC5)cc2Cl)CC4)CCN1C readout_name=IC50 measured_result="10 to 100 nM"
molecule=COC[C@H]1CN(c2cc(C)c3c4c(c(=O)oc3c2C)CN(C(=O)c2ccc(C(=O)NS(=O)(=O)N3CCCC3)cc2)CC4)CCN1C readout_name=IC50 measured_result="10 to 100 nM"
molecule=COC[C@H]1CN(c2ccc3c4c(c(=O)oc3c2C)CN(C(=O)c2ccc(C(=O)NS(=O)(=O)N3CCCC3)c(OC3CCC3)c2F)CC4)CCN1C readout_name=IC50 measured_result="10 to 100 nM"
molecule=COC[C@H]1CN(c2ccc3c4c(c(=O)oc3c2C)CN(C(=O)c2ccc(C(=O)NS(=O)(=O)N3CCCC3)c(OC3CCCC3)c2F)CC4)CCN1C readout_name=IC50 measured_result="1 to 10 nM"
molecule=COC[C@H]1CN(c2cc(C)c3c4c(c(=O)oc3c2C)CN(C(=O)c2ccc(C(=O)NS(=O)(=O)C3(C)CC3)c(N3C5CCC3CC5)c2)CC4)CCN1C readout_name=IC50 measured_result="1 to 10 nM"
molecule=COC[C@H]1CN(c2cc(C)c3c4c(c(=O)oc3c2C)CN(C(=O)c2cc(OC)c(C(=O)NS(=O)(=O)N3CCCC3)cc2Cl)CC4)CCN1C readout_name=IC50 measured_result="1 to 10 nM"
molecule=COC[C@H]1CN(c2cc(Cl)c3c4c(c(=O)oc3c2C)CN(C(=O)c2cc(N(C)C)c(C(=O)NS(=O)(=O)N3CCC5(COC5)C3)cc2F)CC4)CCN1C readout_name=IC50 measured_result="10 to 100 nM"
molecule=COC[C@H]1CN(c2cc(C)c3c4c(c(=O)oc3c2C)CN(C(=O)c2ccc(C(=O)NS(=O)(=O)N3CCCC3)c(N3C5CCC3CC5)c2F)CC4)CCN1C readout_name=IC50 measured_result="10 to 100 nM"
molecule=COC[C@H]1CN(c2cc(C)c3c4c(c(=O)oc3c2C)CN(C(=O)c2cc(N(C)C)c(C(=O)NS(=O)(=O)N(C3CC3)C3CC3)cc2F)CC4)CCN1C readout_name=IC50 measured_result="10 to 100 nM"
molecule=COC[C@H]1CN(c2cc(C)c3c4c(c(=O)oc3c2)CN(C(=O)c2ccc(C(=O)NS(=O)(=O)N3CCCC3)c(OC3CCC3)c2F)CC4)CCN1C readout_name=IC50 measured_result="100 to 1000 nM"
